# Tested on: A498 renal
# ASSAY_INFO: NCI tumour cell line growth inhibition, 48 h
Measured TGI accompanies every entry in the list below.
State just the number; it will be interpreted in µM.

System A498 renal. Read-out TGI. Item CN1CC(CNC(=O)OCc2ccccc2)CC2c3cccc4c3c(cn4C)CC21 (stereo unspecified) . Report value.
16

System A498 renal. Read-out TGI. Item CN(C)CCCCN1c2ccccc2Sc2ccc(C(=O)c3ccccc3)cc21 . Report value.
32.5

System A498 renal. Read-out TGI. Item O=C1C(=Cc2cccc(O)c2)N=C(c2ccccc2)N1n1c(-c2ccccc2)nc2ccccc2c1=O . Report value.
72.4

---

# Tested on: NCI-H522 lung
# ASSAY_INFO: NCI tumour cell line growth inhibition, 48 h
Measured TGI accompanies every entry in the list below.

Illustrative cases are given below, each with its answer.
O=c1c2cc([N+](=O)[O-])ccc2n2n1CCCC2 ... > 100 µM
Fc1cccc2c1cc1ccc3cccc4ccc2c1c34 ... > 100 µM

System NCI-H522 lung. Read-out TGI. Item COc1cc(S(=O)(=O)Nc2nc(-c3ccc(N4C(=O)/C(=C/c5ccccc5[N+](=O)[O-])N=C4c4ccccc4)cc3)cs2)ccc1Cl . Report value.
> 100 µM

---

# Tested on: SK-OV-3 ovarian
# ASSAY_INFO: NCI tumour cell line growth inhibition, 48 h
Measured TGI accompanies every entry in the list below.

Quickly give me recorded TGI for COc1ccc2c(ccc3c(COC(=O)NC(C)C)c(COC(=O)NC(C)C)n(C)c32)c1
32.5 µM

Quickly give me recorded TGI for CC(=O)O[C@H]1CCC2[C@@H]3CCC4Cc5nc6c(nc5C[C@]4(C)C3CC[C@@]21C)CC1CC[C@@H]2C(CC[C@@]3(C)C2CC[C@@H]3C(C)CCCC(C)C)[C@@]1(C)C6 (stereo partly specified)
> 100 µM

---

# System: OVCAR-3 ovarian
# ASSAY_INFO: NCI tumour cell line growth inhibition, 48 h
PARAMETER_MEASURED: TGI

Cc1ccc(NC2=N/C(=C/c3ccccc3)C(Cl)=N2)cc1 ... > 100 µM
O=c1c2c3c(sc2nc(N/N=C/c2ccc(Br)cc2)n1Cc1ccccc1)CCCC3 ... > 100 µM

Consider now this further compound.
Quickly give me recorded TGI for Fc1cccc2c1cc1ccc3cccc4ccc2c1c34
> 100 µM

---

Measured TGI accompanies every entry in the list below.
# Test system: OVCAR-3 ovarian
# ASSAY_INFO: NCI tumour cell line growth inhibition, 48 h

Illustrative cases are given below, each with its answer.
COc1ccc(OC)c(CC(C)N)c1 (stereo not given) ... > 100 µM
CCCCCCCCCCCCCCCCOCC(CCl)OP(=O)(O)OP(=O)(O)OCC1OC(n2ccc(N)nc2=O)C(O)C1O (stereo not given) ... > 100 µM
O=C1CCCC2C3CC(CN12)C1CCCCN1C3 (stereo not given) ... > 100 µM

Quickly give me recorded TGI for COc1ccc(C=C(c2ccc(OCc3ccccc3)cc2)c2ccc(OCc3ccccc3)cc2)cc1
> 100 µM

Quickly give me recorded TGI for NC(N)=NS(=O)(=O)c1ccc(Nc2c3ccccc3nc3c(C(=O)Nc4ccc(S(N)(=O)=O)cc4)ccc(Cl)c23)cc1
> 100 µM

Quickly give me recorded TGI for O=c1oc2ccc(-n3c(=O)c4ccccc4c4ccccc4c3=O)cc2c2ccccc12
> 100 µM

Quickly give me recorded TGI for CC(=N\N=C\c1ccccn1)/C(C)=N/N=C(C)/C(C)=N/N=C/c1ccccn1
> 100 µM

Quickly give me recorded TGI for Cc1nc2ccccc2c(=O)n1NC(=S)Nc1ccc(Cl)cc1[N+](=O)[O-]
> 100 µM

Quickly give me recorded TGI for SC1CCCN(Cc2ccccc2)C1 (stereo not given)
> 100 µM

Quickly give me recorded TGI for COC(=O)C1C2CC3C1C3C2C(=O)OC (stereo not given)
> 100 µM

Quickly give me recorded TGI for O=C(c1cc2c(c3ccccc13)NCCN=C2C(F)(F)F)C(F)(F)F
80.9 µM

The measured values listed here are drawn from PubChem BioAssay (NCI).
